Origin of the recorded values: patent US20230151068A1

biological target: biotinylated His-Avi-TEAD (194-411) (UniProt P28347); assay: SSM screen, enrichment after two rounds of sorting
metric_name: enrichment score

Guide cases for enrichment score, answers given:
>>> measured_number("GSPDIYIERAKECCKKGDIQCCLRYFEESGDPNVMLICLFCP (designed binder) [E03I variant of SEQ ID NO: 1]")
-0.26
>>> measured_number("GSPDEYIEEAKECCKKGDIQCCLRYFEESGDPNVMLICLFCP (designed binder) [R07E variant of SEQ ID NO: 1]")
-0.16

I. GSPDEYIERAKECCKKGDHQCCLRYFEESGDPNVMLICLFCP (designed binder) [I17H variant of SEQ ID NO: 1]
II. GSPDEYIFRAKECCKKGDIQCCLRYFEESGDPNVMLICLFCP (designed binder) [E06F variant of SEQ ID NO: 1]
Prompt line: Hello, I am sorting some records. Could you say if I or II has the smaller enrichment score value? Answer by quoting the chosen item's label.
Response line: I
